Target entity: endogenous CGRP receptor (Homo sapiens, UniProt O60894+Q16602)
Sequence (Q16602 23-461): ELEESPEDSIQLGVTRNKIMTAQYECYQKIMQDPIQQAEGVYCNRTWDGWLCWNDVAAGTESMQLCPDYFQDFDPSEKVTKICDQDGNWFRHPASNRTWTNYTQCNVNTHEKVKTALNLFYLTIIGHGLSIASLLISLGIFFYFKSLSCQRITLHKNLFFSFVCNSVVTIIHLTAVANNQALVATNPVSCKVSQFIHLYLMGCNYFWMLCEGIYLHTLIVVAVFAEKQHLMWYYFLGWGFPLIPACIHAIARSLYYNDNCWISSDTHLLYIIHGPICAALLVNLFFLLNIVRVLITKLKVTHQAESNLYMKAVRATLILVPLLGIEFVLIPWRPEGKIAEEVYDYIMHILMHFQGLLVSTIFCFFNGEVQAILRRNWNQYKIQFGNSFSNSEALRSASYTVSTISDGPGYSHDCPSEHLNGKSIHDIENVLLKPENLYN
Sequence (O60894 27-148): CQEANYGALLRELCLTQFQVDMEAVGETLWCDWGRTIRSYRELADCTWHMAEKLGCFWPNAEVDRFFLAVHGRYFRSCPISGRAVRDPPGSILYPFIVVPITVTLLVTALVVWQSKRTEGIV
Experimental details: CGRP functional antagonism using SK-N-MC-BLA (4C10), β-lactamase transcriptional reporter assay
Assay context: SK-N-MC (4C10) cells, inhibition of β-lactamase expression in the presence of 200 pM CGRP
Test readout: IC50

Examples with answers:
compound="CC(C)(C)CCN1C(=O)[C@H](CC(=O)N2CCC(n3c(=O)[nH]c4ncccc43)CC2)SC1c1cccc(F)c1N1CCN(C(=O)OC(C)(C)C)CC1 (some centres unmarked) [Compound 549]" measured_result="1 to 5 µM"
compound="CC(C)CCN1C(=O)C(CC(=O)N2CCC(N3Cc4ccccc4NC3=O)CC2)SC1c1cccc(OC(F)(F)C(F)F)c1 (centres unmarked) [Compound 240]" measured_result="1 to 5 µM"
compound="CC(C)(C)CCN1C(=O)C(CC(=O)N2CCC(N3CCc4ccccc4NC3=O)CC2)SC1c1cccc(F)c1F (centres unmarked) [Compound 48]" measured_result="< 1 µM"
compound="CC(C)(C)CCN1C(=O)C(CC(=O)N2CCC(Nc3ccc(Cl)cc3)CC2)SC1c1cccc(F)c1N1CCN(C(C)(C)C)CC1 (centres unmarked) [Compound 448]" measured_result="< 1 µM"
compound="CC(C)(C)CCN1C(=O)[C@H](CC(=O)N2CCC(n3c(=O)[nH]c4ncccc43)CC2)S[C@H]1c1cccc(F)c1N1CCC(N2CCCCC2)CC1 [Compound 441]" measured_result="< 1 µM"
compound="CN1CCN(c2c(Cl)cccc2C2SC(CC(=O)N3CCC(N4CCc5ccccc5NC4=O)CC3)C(=O)N2CCC(C)(C)C)CC1 (centres unmarked) [Compound 356]" measured_result="< 1 µM"
compound="CN(C)c1ccccc1C1SC(CC(=O)N2CCC(n3c(=O)[nH]c4ccccc43)CC2)C(=O)N1CCC(C)(C)C (centres unmarked) [Compound 299]" measured_result="< 1 µM"
compound="CC(C)(C)CCN1C(=O)C(CC(=O)N2CCC(N3Cc4ccccc4NC3=O)CC2)SC12c1ccccc1-c1ccccc12 (centres unmarked) [Compound 309]" measured_result="1 to 5 µM"
compound="CC(C)(C)CC1SC(CC(=O)N2CCC(n3c(=O)[nH]c4ncccc43)CC2)C(=O)N1c1ccccc1 (centres unmarked) [Compound 417]" measured_result="1 to 5 µM"
compound="CC(C)N1C(=O)C(CC(=O)N2CCC(N3Cc4ccccc4NC3=O)CC2)SC1c1ccccc1 (centres unmarked) [Compound 255]" measured_result="1 to 5 µM"

Data request: Which IC50 is reported for this compound? CC(C)(C)CCN1C(=O)C(CC(=O)N2CCC(N3CCc4ccccc4NC3=O)CC2)SC1c1ccccc1-n1cccn1 (centres unmarked) [Compound 88]
Data returned: < 1 µM

Data request: Which IC50 is reported for this compound? CC(C)(C)CCN1C(=O)C(CC(=O)N2CCC(N3CCc4ccccc4NC3=O)CC2)SC1c1ccccc1N1CCOCC1 (centres unmarked) [Compound 70]
Data returned: < 1 µM

Data request: Which IC50 is reported for this compound? CC(C)CCN1C(=O)C(CC(=O)N2CCC(N3Cc4ccccc4NC3=O)CC2)SC1c1cccnc1 (centres unmarked) [Compound 182]
Data returned: < 1 µM

Data request: Which IC50 is reported for this compound? CN1CCCN(c2ccccc2C2SC(CC(=O)N3CCC(N4Cc5ccccc5NC4=O)CC3)C(=O)N2CCC(C)(C)C)CC1 (centres unmarked) [Compound 369]
Data returned: 1 to 5 µM

Values from patent US8163737B2
